target: CCR1 (Homo sapiens); test: calcium flux in CCR1 transfected cells, Method B (Calcium 4 dye, HAMAMATSU FDSS6000); format: cell-based; conditions: cells stably expressing recombinant CCR1 and G-alpha-16, MIP-1alpha at EC80
PROPERTY MEASURED: log10 of IC50 (log10 of the value in nM)

{"COMPOUND": "CC1CCc2c(cnn2-c2ccc(F)cc2)N1C(=O)N[C@@H](C)c1ccnc(S(C)(=O)=O)c1 (stereo partly shown)", "ENDPOINT VALUE": 2.84}
{"COMPOUND": "CS(=O)(=O)c1cc(CNC(=O)N2CCCc3c2cnn3-c2ccc(F)cc2)ccn1", "ENDPOINT VALUE": 1.53}
{"COMPOUND": "O=C(NCc1ccc(Cl)c(Cl)c1)N1CCCc2c1cnn2-c1ccc(F)cc1", "ENDPOINT VALUE": 0.00}
{"COMPOUND": "CCC[C@H](NC(=O)N1c2cnn(-c3ccc(F)cc3)c2CCC1C(F)(F)F)c1cc(S(C)(=O)=O)ccc1F (single isomer, unassigned)", "ENDPOINT VALUE": 1.57}
{"COMPOUND": "CCCC(NC(=O)N1CCCc2c1cnn2-c1ccc(F)cc1)c1ccc(S(C)(=O)=O)nc1 (stereo not shown)", "ENDPOINT VALUE": 0.48}
{"COMPOUND": "CC[C@H](NC(=O)N1CCCc2c1cnn2-c1ccc(F)cc1)c1ccnc(S(C)(=O)=O)c1", "ENDPOINT VALUE": -0.22}
{"COMPOUND": "CCC[C@H](NC(=O)N1c2cnn(-c3ccc(F)cc3)c2CC[C@@H]1C)c1cncc(S(C)(=O)=O)c1", "ENDPOINT VALUE": 1.34}

---

Parameter: log10(IC50). Scope: all listed entries.
Target: CCR1 (Homo sapiens)
Sequence (P32246 1-355): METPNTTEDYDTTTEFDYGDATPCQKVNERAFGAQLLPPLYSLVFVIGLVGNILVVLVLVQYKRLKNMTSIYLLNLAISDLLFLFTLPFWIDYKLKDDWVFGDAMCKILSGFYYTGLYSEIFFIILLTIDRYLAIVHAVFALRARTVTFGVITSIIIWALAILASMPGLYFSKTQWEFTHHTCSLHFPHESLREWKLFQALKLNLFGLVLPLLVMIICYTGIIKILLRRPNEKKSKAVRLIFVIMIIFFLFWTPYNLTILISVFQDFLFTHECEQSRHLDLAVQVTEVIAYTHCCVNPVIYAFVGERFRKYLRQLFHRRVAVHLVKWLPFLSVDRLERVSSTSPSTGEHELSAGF
Experiment: calcium flux in CCR1 transfected cells, Method A (Fluo-4 NW, FLIPR TETRA)
Format: cell-based
Details: cells stably expressing recombinant CCR1 and G-alpha-16, MIP-1 alpha at EC80
PROPERTY MEASURED: log10(IC50) (log10 of the value in µM)

{"COMPOUND": "CN(C)S(=O)(=O)c1cccc(CNC(=O)N2CCCc3c2cnn3-c2ccc(F)cc2)c1 [Example 33]", "log10(IC50)": -1.72}
{"COMPOUND": "O=C(NCc1ccc(S(=O)(=O)NC2CCOCC2)cc1)N1CCCc2c1cnn2-c1ccc(F)cc1 [Example 28]", "log10(IC50)": -1.40}
{"COMPOUND": "CNS(=O)(=O)c1ccc(CNC(=O)N2CCCc3c2cnn3-c2ccc(F)cc2)cc1 [Example 22]", "log10(IC50)": -1.66}
{"COMPOUND": "CS(=O)(=O)c1ccc(CNC(=O)N2CCCc3c2cnn3-c2ccc(F)cc2)cc1 [Example 25]", "log10(IC50)": -1.29}
{"COMPOUND": "CCCC(NC(=O)N1CCCc2c1cnn2-c1ccc(F)cc1)c1cncc(S(C)(=O)=O)c1 (stereo not drawn) [Example 24]", "log10(IC50)": -3.22}
{"COMPOUND": "CCC[C@H](NC(=O)N1CCCc2c1cnn2-c1c(F)cc(F)cc1F)c1ccnc(S(C)(=O)=O)c1 [Example 63]", "log10(IC50)": -1.85}
